# experimentalTarget: 5-HT2B receptor (rat stomach fundus) (Rattus norvegicus)
# Sequence (P30994 whole entry): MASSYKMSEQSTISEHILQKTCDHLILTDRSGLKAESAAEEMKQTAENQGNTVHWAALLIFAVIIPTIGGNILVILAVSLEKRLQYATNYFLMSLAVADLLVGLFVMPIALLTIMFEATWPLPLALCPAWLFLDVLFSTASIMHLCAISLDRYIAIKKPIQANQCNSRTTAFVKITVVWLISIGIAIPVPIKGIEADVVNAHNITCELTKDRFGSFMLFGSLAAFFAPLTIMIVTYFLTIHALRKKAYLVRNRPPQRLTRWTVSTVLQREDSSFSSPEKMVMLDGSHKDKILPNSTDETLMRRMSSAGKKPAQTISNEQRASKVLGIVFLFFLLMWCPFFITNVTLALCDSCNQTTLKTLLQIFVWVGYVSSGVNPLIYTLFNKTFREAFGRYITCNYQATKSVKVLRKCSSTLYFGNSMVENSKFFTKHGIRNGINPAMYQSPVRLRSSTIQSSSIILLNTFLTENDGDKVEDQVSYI
# testContext: rat stomach fundus; vs serotonin; ± standard error; read-out: 5-HT2B (Fundus) -log KB (converted)
Where a name gives a salt, the structure may show the parent alone.
Documented Kb across a set of compounds
Numbers only here, please. The scale is nM.

Illustrative cases are given below, each with its answer.
Cc1ccc2c(c1)c1c(n2C)C(Cc2cccc3ccccc23)NCC1 (racemic) [Example 63, hydrochloride]
0.813
COc1ccc(CC2NCCc3c2[nH]c2c(F)cc(F)cc32)cc1OC (stereo not shown)
0.251

The reported value for COc1ccc(CC2NCCc3c2[nH]c2c(C)cc(C)cc32)cc1OC (stereo not shown) [Example 14, hydrochloride] in terms of Kb is 0.245

---

Documented log10 of Ki across a set of compounds
# experimentalTarget: Human 5-HT2B (Homo sapiens, UniProt P41595)
# Construct: expressed in transfected cells
# Sequence (P41595 whole entry): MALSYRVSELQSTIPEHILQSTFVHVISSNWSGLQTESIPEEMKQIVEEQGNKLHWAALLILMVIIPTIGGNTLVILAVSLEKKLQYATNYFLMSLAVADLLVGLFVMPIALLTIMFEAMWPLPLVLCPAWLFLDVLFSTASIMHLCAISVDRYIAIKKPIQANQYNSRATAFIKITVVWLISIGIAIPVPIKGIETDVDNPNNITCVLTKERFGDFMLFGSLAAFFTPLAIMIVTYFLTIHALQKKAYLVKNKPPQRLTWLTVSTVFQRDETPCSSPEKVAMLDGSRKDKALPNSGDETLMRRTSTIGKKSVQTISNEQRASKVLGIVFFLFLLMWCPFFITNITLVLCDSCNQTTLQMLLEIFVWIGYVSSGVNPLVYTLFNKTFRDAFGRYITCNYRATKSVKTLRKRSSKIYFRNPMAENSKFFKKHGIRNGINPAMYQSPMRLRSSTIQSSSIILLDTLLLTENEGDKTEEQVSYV
# protocolSummary: [3H]Serotonin radioligand binding, human 5-HT2B;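 also: competition of tritiated serotonin binding to cell membranes, bound radioactivity on filters counted by liquid scintillation, IC50 from logistic fits converted to Ki with the Cheng-Prusoff equation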
# testContext: [3H]Serotonin; 5-HT2B cells; AVG; read-out: Ki Human 5-HT2B
Quick note: numbers are log10 of Ki, with nM as the unit.

Illustrative cases are given below, each with its answer.
COc1ccc(CC2NCCc3c2[nH]c2c(Cl)c(C)ccc32)cc1OC (centres unmarked)
-0.08
CCc1ccc2[nH]c3c(c2c1)CCNC3Cc1ccc(OC)c(OC)c1 (centres unmarked) [drawing 143]
0.18
NCCc1c[nH]c2ccc(C(N)=O)cc12
2.11
COc1ccc(CC2NCCc3c2[nH]c2ccc(C)cc32)cc1O (centres unmarked)
0.17
COc1ccc(CC2NCCc3c2[nH]c2c(C)cccc32)cc1OC (centres unmarked) [drawing 182]
0.23

The reported value for CCCNC1CCc2cccc(-c3ccno3)c2C1 (centres unmarked) in terms of log10 of Ki is 3.01

The reported value for CCCN(CCC)C1CCc2cccc(-c3ccno3)c2C1 (single isomer, unassigned) in terms of log10 of Ki is 2.33

The reported value for Cc1ccc2[nH]c3c(c2c1)CCNC3Cc1ccc(N(C)C)c2ccccc12 (centres unmarked) in terms of log10 of Ki is 0.21

The reported value for CCCN(CCC)[C@H]1CCc2cccc(-c3ccon3)c2C1 in terms of log10 of Ki is 2.41

The reported value for CCCNC1CCc2cccc(C(C)=O)c2C1 (centres unmarked) in terms of log10 of Ki is 3.25

The reported value for CCCN(CCC)C1CCc2cccc(-c3ccno3)c2C1 (centres unmarked) in terms of log10 of Ki is 2.71

---

Documented log10 of Ki across a set of compounds
# experimentalTarget: rat 5-HT2B receptor (Rattus norvegicus, UniProt P30994);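 also: displacement of [3H]5-HT from membranes of suspension cells carrying cloned rat 5-HT2B receptor, incubated 15 min at 37 °C or 2 h at 0 °C, filter-bound radioactivity counted by scintillation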
# Sequence (P30994 whole entry): as the sequence (P30994 whole entry) above
# protocolSummary: biochemical
# Type: binding
# testContext: [3H]Serotonin; 5-HT2B cells; AVG; read-out: Ki Rat 5-HT2B
Quick note: numbers are log10 of Ki, with nM as the unit.

Illustrative cases are given below, each with its answer.
NCCc1c[nH]c2ccc(F)cc12
0.75
Cc1c(Br)ccc2c3c([nH]c12)CNCC3
1.51
COc1ccc(CC2NCCc3c2[nH]c2c(Br)c(C)ccc32)c(OC)c1OC (stereo not drawn)
0.94
CCCC(=O)c1cccc2c1CC(N(C)C)CC2 (stereo not drawn)
2.94
CC(O)C(C)OC(=O)C1CC2c3cccc4[nH]cc(c34)CC2N(C)C1 (stereo not drawn)
1.09

Consider now this further compound.
The reported value for NCCc1c[nH]c2c1ccc1ccccc12 in terms of log10 of Ki is 2.19
